# System: TO-N3-2 (biotin conjugate)
# Run Description: pull-down binding Z-score (relative to library population); higher = stronger binding
# Recorded Conditions: RNA library: Library-2
Assay Metric: pull-down binding Z-score

Before answering, review these 10 worked examples.
| Item Sequence | Result |
| --- | --- |
| CCCACUUCCUGGA [hsa-mir-4260] | -0.0316 |
| AGGCAUGGGUGGCU [hsa-mir-8085] | 0.625 |
| GGCGCUGGGACCCCACUAGGGUGGCGCC [hsa-mir-4488] | 0.687 |
| CAGUGCUUUUAGAAAAUUUGUGUG [hsa-mir-581] | -0.187 |
| UGCAGUGCUGGGCAUGGGCUUCUCG [hsa-mir-3677] | 1.54 |
| UCUGCUUUAUUUCAUCAAAGCAGA [hsa-mir-4773-1] | -1.41 |
| CCCCGCGCGCGGACAGACACACGGACAAGUCCCGCCAGGGG [hsa-mir-4492] | 4.65 |
| UUGGUCCGUAUGUGUGGUGCCACCGG [hsa-mir-1908] | 0.948 |
| CAUGCUGAUUUUGACACAUGGUUUAGCCAGCGUG [DMSMaPseq_invitro_SARS-CoV-2_Motif_160] | -0.276 |
| AGUGUUGUUUUUUCCCCCGCCAAUAUU [hsa-mir-92b] | 0.0118 |

Query sequence follows.
Consider the sequence shown here: CCUUGCGAAAGGAGAGAAGGCUAAUGUGCUAAUUGGGCAAGG [IAV_invivo_PB2_1_Motif_34+IAV_invivo_PB2_1_Motif_34] What is its recorded pull-down binding Z-score?
0.837
